- STUDY_SYSTEM: eqBuChE (Equus caballus, UniProt P81908)
- Construct: eqBuChE, from equine serum; purchased Sigma Aldrich; host or cells: equine serum (natural source)
- Sequence (P81908 whole entry): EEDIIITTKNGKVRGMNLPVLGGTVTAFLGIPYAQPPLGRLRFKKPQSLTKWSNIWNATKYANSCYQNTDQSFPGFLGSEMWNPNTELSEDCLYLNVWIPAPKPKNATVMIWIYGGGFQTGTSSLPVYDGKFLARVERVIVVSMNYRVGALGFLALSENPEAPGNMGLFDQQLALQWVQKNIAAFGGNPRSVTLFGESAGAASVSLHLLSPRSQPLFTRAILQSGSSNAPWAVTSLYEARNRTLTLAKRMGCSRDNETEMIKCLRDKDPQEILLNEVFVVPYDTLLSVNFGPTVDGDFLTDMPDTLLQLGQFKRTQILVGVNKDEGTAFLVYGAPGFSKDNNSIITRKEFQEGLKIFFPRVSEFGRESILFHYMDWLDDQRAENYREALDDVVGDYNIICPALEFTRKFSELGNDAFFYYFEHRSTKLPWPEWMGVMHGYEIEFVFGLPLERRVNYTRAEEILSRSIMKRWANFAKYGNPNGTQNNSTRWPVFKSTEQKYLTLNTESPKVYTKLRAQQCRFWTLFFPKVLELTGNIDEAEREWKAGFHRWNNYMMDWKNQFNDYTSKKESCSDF
- ASSAY_NAME: biochemical
- Design: species or system equine
- COND: BuChE from equine serum; read-out: IC50 ± SD eqBuChE
Listed compounds paired with reported pIC50
Just so you know, pIC50 here is -log10 of the concentration in molar units; reply with that number alone.

COMPOUND	pIC50
CCN(CC)C(=O)Oc1cccc2ncccc12 [Compound 3f, Quinolin-5-yl diethylcarbamate]	6.09

Consider now this further compound.
Report pIC50 for O=C(Oc1ccnc2ccccc12)N1CCOCC1 [Compound 3d, Quinolin-4-yl morpholine-4-carboxylate] please.
6.06

---

- Test system: NO
- ASSAY_NAME: NO release in LPS-stimulated BV-2 cells (Griess method)
- Format: cell-based
- COND: 1 µg/mL LPS 24 h
RECORDED_ENDPOINT: release volume of NO

COMPOUND	EXPERIMENTAL_VALUE
CCN(CC)C(=O)Oc1cccc2ncccc12 [Compound 3f, Quinolin-5-yl diethylcarbamate]	significantly decreased
CN(C)C(=O)Oc1cccc2ncccc12 [Compound 3e, Quinolin-5-yl dimethylcarbamate]	significantly decreased
CCN(C)C(=O)Oc1ccc2ncccc2c1 [Compound 3k, Quinolin-6-yl ethyl(methyl)carbamate]	significantly decreased
CCN(CC)C(=O)Oc1cccc2cccnc12 [Compound 3n, Quinolin-8-yl diethylcarbamate]	significantly decreased

Value lookup for release volume of NO; key = CCN(C)C(=O)Oc1ccnc2ccccc12 [Compound 3c, Quinolin-4-yl ethyl(methyl)carbamate]
significantly decreased

So what does the record say about release volume of NO for CN(C)C(=O)Oc1ccnc2ccccc12 [Compound 3a, Quinolin-4-yl dimethylcarbamate] ?
significantly decreased

Given the compound CN(C)C(=O)Oc1cccc2cccnc12 [Compound 3m, Quinolin-8-yl dimethylcarbamate] , what is its reported release volume of NO?
significantly decreased

---

- STUDY_SYSTEM: hAChE (Homo sapiens, UniProt P22303)
- Construct: hAChE, from human erythrocytes AChE; purchased Sigma Aldrich; host or cells: human erythrocytes (natural source)
- Sequence (P22303 32-617 isoform P22303-2 limits assumed): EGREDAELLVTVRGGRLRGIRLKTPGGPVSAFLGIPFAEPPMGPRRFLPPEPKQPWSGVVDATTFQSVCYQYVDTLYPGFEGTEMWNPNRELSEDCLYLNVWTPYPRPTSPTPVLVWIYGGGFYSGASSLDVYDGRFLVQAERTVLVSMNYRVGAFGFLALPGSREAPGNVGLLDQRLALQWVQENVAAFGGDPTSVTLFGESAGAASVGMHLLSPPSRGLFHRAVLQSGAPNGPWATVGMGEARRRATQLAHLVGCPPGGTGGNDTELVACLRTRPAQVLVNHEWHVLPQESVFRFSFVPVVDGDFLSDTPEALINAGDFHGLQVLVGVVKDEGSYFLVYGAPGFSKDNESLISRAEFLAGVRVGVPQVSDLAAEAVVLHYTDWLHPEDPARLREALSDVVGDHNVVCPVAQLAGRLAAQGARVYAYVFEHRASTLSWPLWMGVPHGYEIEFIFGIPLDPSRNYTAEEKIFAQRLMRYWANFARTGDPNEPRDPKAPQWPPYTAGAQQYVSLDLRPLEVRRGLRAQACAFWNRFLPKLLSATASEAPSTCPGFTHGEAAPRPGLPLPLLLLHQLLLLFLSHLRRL
- ASSAY_NAME: biochemical
- COND: from human erythrocytes; read-out: IC50 ± SD hAChE
RECORDED_ENDPOINT: pIC50
Keep it numeric: pIC50 is minus log10 of the concentration in mol/L.

MOLECULE	STUDY_SYSTEM	pIC50
CCN(CC)C(=O)Oc1ccnc2ccccc12 [Compound 3b, Quinolin-4-yl diethylcarbamate]	hAChE (Homo sapiens, UniProt P22303)	4.52

Item under review: O=C(Oc1ccnc2ccccc12)N1CCOCC1 [Compound 3d, Quinolin-4-yl morpholine-4-carboxylate] . Reported pIC50?
4.57

Tell me the measured pIC50 of CCN(CC)C(=O)Oc1cccc2ncccc12 [Compound 3f, Quinolin-5-yl diethylcarbamate] , please.
5.25

---

- STUDY_SYSTEM: eeAChE (Electrophorus electricus)
- Construct: eeAChE, from the electric eel; purchased Sigma Aldrich; host or cells: electric eel (natural source)
- Sequence (O42275 24-633): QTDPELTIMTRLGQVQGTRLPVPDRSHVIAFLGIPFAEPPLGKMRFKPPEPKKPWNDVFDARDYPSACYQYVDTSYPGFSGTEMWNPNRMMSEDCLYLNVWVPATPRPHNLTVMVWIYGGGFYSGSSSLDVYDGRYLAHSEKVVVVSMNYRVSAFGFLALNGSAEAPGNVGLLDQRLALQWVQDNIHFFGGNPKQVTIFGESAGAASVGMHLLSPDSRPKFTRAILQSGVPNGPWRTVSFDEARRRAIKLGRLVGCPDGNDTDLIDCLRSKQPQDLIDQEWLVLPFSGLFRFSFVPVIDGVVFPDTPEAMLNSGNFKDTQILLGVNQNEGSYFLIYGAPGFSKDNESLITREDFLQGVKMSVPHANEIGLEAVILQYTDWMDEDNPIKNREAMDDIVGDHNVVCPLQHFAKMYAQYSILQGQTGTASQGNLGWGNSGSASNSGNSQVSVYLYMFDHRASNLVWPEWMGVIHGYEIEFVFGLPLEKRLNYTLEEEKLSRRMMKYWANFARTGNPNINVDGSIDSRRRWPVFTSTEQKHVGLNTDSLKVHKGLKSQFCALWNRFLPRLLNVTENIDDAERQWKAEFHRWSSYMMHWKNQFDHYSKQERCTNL
- ASSAY_NAME: biochemical
- Design: species or system electric eel
- Procedure: The inhibitory activities of the synthesised compounds against eeAChE (from electric eel) and eqBuChE (from equine serum) were tested by the modified Ellman’s method[26]^,[27]. […] The determination of AChE and BuChE inhibitory potency of the synthesised compounds were evaluated by Ellman assay, the detailed procedure referred to our previous work[26]^,[27].
pIC50: −log10 of the molar value.
Threshold check on pIC50: at or above 5 gives true (1), strictly below gives false (0).

Completed entries (count: 3):
COMPOUND	CLASS_NAME
CN(C)C(=O)Oc1cccc2cccnc12 [Compound 3m, Quinolin-8-yl dimethylcarbamate]	true (1)
CN(C)C(=O)Oc1cccc2ncccc12 [Compound 3e, Quinolin-5-yl dimethylcarbamate]	true (1)
CN(C)C(=O)Oc1ccc2ncccc2c1 [Compound 3i, Quinolin-6-yl dimethylcarbamate]	false (0)

For the next question, use this compound.
Has CCN(C)C(=O)Oc1cccc2ncccc12 [Compound 3g, Quinolin-5-yl ethyl(methyl)carbamate] a recorded pIC50 greater than or equal to 5?
true (1)

---

- STUDY_SYSTEM: eqBuChE (Equus caballus, UniProt P81908)
- Construct: eqBuChE, from equine serum; purchased Sigma Aldrich; host or cells: equine serum (natural source)
- ASSAY_NAME: biochemical
- Set-up: species or system equine
- COND: IC50 ± SD eqBuChE, BuChE from equine serum
RECORDED_ENDPOINT: IC50
Express your answer as a number followed by its unit.

Any idea what its IC50 is? The compound is CN(C)C(=O)Oc1cccc2ncccc12 [Compound 3e, Quinolin-5-yl dimethylcarbamate]
940 nM

---

- STUDY_SYSTEM: eqBuChE (Equus caballus, UniProt P81908)
- Construct: eqBuChE, from equine serum; purchased Sigma Aldrich; host or cells: equine serum (natural source)
- ASSAY_NAME: biochemical
- Parameters: species or system equine
- COND: read-out: eqBuChE inhibition rate
RECORDED_ENDPOINT: inhibition at 25 µM (%)
// return numeric value only (unit: %, not printed)

// solved cases for inhibition at 25 µM follow
COMPOUND	UNITS_SYMBOL	inhibition at 25 µM
CCN(C)C(=O)Oc1ccc2ncccc2c1 [Compound 3k, Quinolin-6-yl ethyl(methyl)carbamate]	%	5.8
CCN(C)C(=O)Oc1cccc2cccnc12 [Compound 3o, Quinolin-8-yl ethyl(methyl)carbamate]	%	4.1
CN(C)C(=O)Oc1ccc2ncccc2c1 [Compound 3i, Quinolin-6-yl dimethylcarbamate]	%	13.8

Dear colleague, I am looking for the recorded inhibition at 25 µM of the following compound: CN(C)C(=O)Oc1cccc2cccnc12 [Compound 3m, Quinolin-8-yl dimethylcarbamate]
7.3

---

- STUDY_SYSTEM: eqBuChE (Equus caballus)
- Construct: eqBuChE, from equine serum; purchased Sigma Aldrich; host or cells: equine serum (natural source)
- ASSAY_NAME: biochemical
- Design: species or system equine
- COND: eeAChE/eqBuChE
Entries annotated with measured SI = IC50 (AChE)/IC50 (BuChE)
Write the value as a bare number.

Example entries and their recorded answers appear below.
COMPOUND	SI = IC50 (AChE)/IC50 (BuChE)
CCN(CC)C(=O)Oc1cccc2ncccc12 [Compound 3f, Quinolin-5-yl diethylcarbamate]	1.6
O=C(Oc1cccc2ncccc12)N1CCOCC1 [Compound 3h, Quinolin-5-yl morpholine-4-carboxylate]	7.2
CCN(C)C(=O)Oc1ccnc2ccccc12 [Compound 3c, Quinolin-4-yl ethyl(methyl)carbamate]	6.9
CCN(C)C(=O)Oc1cccc2ncccc12 [Compound 3g, Quinolin-5-yl ethyl(methyl)carbamate]	1.4

I would be grateful if you could share the reported SI = IC50 (AChE)/IC50 (BuChE) for CN(C)C(=O)Oc1ccnc2ccccc12 [Compound 3a, Quinolin-4-yl dimethylcarbamate] .
3.8

Give the measured SI = IC50 (AChE)/IC50 (BuChE) of CN(C)C(=O)Oc1cccc2ncccc12 [Compound 3e, Quinolin-5-yl dimethylcarbamate] .
4.8

Which SI = IC50 (AChE)/IC50 (BuChE) value belongs to CCN(CC)C(=O)Oc1ccnc2ccccc12 [Compound 3b, Quinolin-4-yl diethylcarbamate] ?
11.5

Name the reported SI = IC50 (AChE)/IC50 (BuChE) value associated with the compound O=C(Oc1ccnc2ccccc12)N1CCOCC1 [Compound 3d, Quinolin-4-yl morpholine-4-carboxylate]
18.0

---

- STUDY_SYSTEM: eqBuChE (Equus caballus)
- Construct: eqBuChE, from equine serum; purchased Sigma Aldrich; host or cells: equine serum (natural source)
- ASSAY_NAME: biochemical
- Set-up: species or system equine
- COND: at 25 μM of compounds; read-out: eqBuChE inhibition rate
RECORDED_ENDPOINT: inhibition at 25 µM (%)
Give the quantity in %, number only.

COMPOUND	STUDY_SYSTEM	UNITS_SYMBOL	inhibition at 25 µM
O=C(Oc1ccc2ncccc2c1)N1CCOCC1 [Compound 3l, Quinolin-6-yl morpholine-4-carboxylate]	eqBuChE (Equus caballus)	%	13.8
CC(C)N(C(=O)Oc1cccc2cccnc12)C(C)C [Compound 3q, Quinolin-8-yl diisopropylcarbamate]	eqBuChE (Equus caballus)	%	1.7
O=C(Oc1cccc2cccnc12)N1CCOCC1 [Compound 3p, Quinolin-8-yl morpholine-4-carboxylate]	eqBuChE (Equus caballus)	%	10.8
CCN(CC)C(=O)Oc1cccc2cccnc12 [Compound 3n, Quinolin-8-yl diethylcarbamate]	eqBuChE (Equus caballus)	%	2.4

Then there is this compound:
Using the record for CCN(CC)C(=O)Oc1ccc2ncccc2c1 [Compound 3j, Quinolin-6-yl diethylcarbamate] , report its inhibition at 25 µM.
30.7

---

Item-by-item account of SI = IC50 (AChE)/IC50 (BuChE)
- STUDY_SYSTEM: hBuChE (Homo sapiens)
- Construct: hBuChE, human serum BuChE; purchased Sigma Aldrich; host or cells: human serum (natural source)
- Sequence (P06276 29-602): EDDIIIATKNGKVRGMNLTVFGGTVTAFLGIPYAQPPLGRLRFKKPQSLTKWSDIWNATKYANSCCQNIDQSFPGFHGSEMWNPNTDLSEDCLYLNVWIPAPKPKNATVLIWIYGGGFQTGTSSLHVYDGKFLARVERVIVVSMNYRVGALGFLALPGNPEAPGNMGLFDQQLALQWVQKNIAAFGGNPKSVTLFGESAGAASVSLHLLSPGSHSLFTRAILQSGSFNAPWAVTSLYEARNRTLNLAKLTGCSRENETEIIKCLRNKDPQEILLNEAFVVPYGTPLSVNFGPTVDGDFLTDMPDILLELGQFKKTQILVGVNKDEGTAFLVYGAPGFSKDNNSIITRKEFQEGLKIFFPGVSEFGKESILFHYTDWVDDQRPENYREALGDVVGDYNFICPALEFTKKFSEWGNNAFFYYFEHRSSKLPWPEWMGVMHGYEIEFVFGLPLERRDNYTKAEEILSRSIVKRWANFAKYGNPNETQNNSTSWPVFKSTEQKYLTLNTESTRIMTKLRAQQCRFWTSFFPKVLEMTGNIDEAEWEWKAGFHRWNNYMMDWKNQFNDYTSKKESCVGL
- ASSAY_NAME: biochemical
- COND: hAChE/hBuChE

MOLECULE	SI = IC50 (AChE)/IC50 (BuChE)
O=C(Oc1ccnc2ccccc12)N1CCOCC1 [Compound 3d, Quinolin-4-yl morpholine-4-carboxylate]	2.8
CCN(CC)C(=O)Oc1ccnc2ccccc12 [Compound 3b, Quinolin-4-yl diethylcarbamate]	5.6
CN(C)C(=O)Oc1cccc2ncccc12 [Compound 3e, Quinolin-5-yl dimethylcarbamate]	2.8

Attention now shifts to the item below.
GET /values?readout=SI = IC50 (AChE)/IC50 (BuChE)&item= CCN(CC)C(=O)Oc1cccc2ncccc12 [Compound 3f, Quinolin-5-yl diethylcarbamate]
2.4
